Where do the numbers come from? From paper PMC11277489.

Test system: 60 human tumor cell lines (NCI60)
Experiment: NCI60 five-dose screen, whole panel and sub-panel means
Assay type: cell-based
Conditions: Homo sapiens, mean over Renal Cancer panel; read-out: GI50 Mean
Output fulfilled for records whose GI50 is lower than 3 µM, not fulfilled for records at or above 3 µM.

# molecule, assignedLabel
records = [
    ("CC[C@]12C=CCN3CC[C@@]4(c5ccc(OC)cc5N(C)[C@H]4[C@@](O)(C(=O)OC)[C@@H]1OC(=O)CCC(=O)N1CCN(Cc4ccc(C(F)(F)F)cc4)CC1)[C@@H]32 [Compound 29]", "not fulfilled"),
    ("CCC12C=CCN3CCC4(c5cc(NC(=O)CN6CCN(c7ccc(C(F)(F)F)cc7)CC6)c(OC)cc5N(C)C4C(O)(C(=O)OC)C1OC(C)=O)C32 (centres unmarked) [Compound 17]", "not fulfilled"),
    ("CC[C@]12C=CCN3CC[C@@]4(c5ccc(OC)cc5N(C)[C@H]4[C@@](O)(C(=O)OC)[C@@H]1OC(=O)CCCN1CCN(Cc4ccc(F)cc4)CC1)[C@@H]32 [Compound 24]", "not fulfilled"),
    ("CC[C@]12C=CCN3CC[C@@]4(c5ccc(OC)cc5N(C)[C@H]4[C@@](O)(C(=O)OC)[C@@H]1OC(=O)CCCN1CCN(Cc4ccc(C(F)(F)F)cc4)CC1)[C@@H]32 [Compound 23]", "fulfilled"),
    ("CC[C@]12C=CCN3CC[C@@]4(c5ccc(OC)cc5N(C)[C@H]4[C@@](O)(C(=O)OC)[C@@H]1OC(=O)CCC(=O)N1CCN(C(c4ccc(F)cc4)c4ccc(F)cc4)CC1)[C@@H]32 [Compound 31]", "fulfilled"),
    ("CC[C@]12C=CCN3CC[C@@]4(c5ccc(OC)cc5N(C)[C@H]4[C@@](O)(C(=O)OC)[C@@H]1OC(=O)CCC(=O)N1CCN(c4ccc(C(F)(F)F)cc4)CC1)[C@@H]32 [Compound 28]", "not fulfilled"),
    ("CCC12C=CCN3CCC4(c5cc(NC(=O)CN6CCN(C(c7ccc(F)cc7)c7ccc(F)cc7)CC6)c(OC)cc5N(C)C4C(O)(C(=O)OC)C1OC(C)=O)C32 (centres unmarked) [Compound 20]", "not fulfilled"),
    ("CC[C@]12C=CCN3CC[C@@]4(c5ccc(OC)cc5N(C)[C@H]4[C@@](O)(C(=O)OC)[C@@H]1OC(=O)CCCN1CCN(c4ccc(C(F)(F)F)cc4)CC1)[C@@H]32 [Compound 22]", "fulfilled"),
]

----------
The compounds listed here are annotated with their activity at 10 µM.
Test system: U251
Assay: NCI60 one-dose screen (10 μM), CNS Cancer
Assay type: cell-based
Conditions: Homo sapiens, U-251; 10 μM; U251, CNS Cancer; read-out: Growth percent rate

# compound, unitLabel, activity at 10 µM
data = [
    ("CCC12C=CCN3CCC4(c5ccc(OC)cc5N(C)C4C(O)(C(=O)OC)C1OC(=O)CCC(=O)O)C32 (centres unmarked) [Compound 15, 17-(O-3-carboxypropanoyl)vindoline]", "%", 105),
    ("CC[C@]12C=CCN3CC[C@@]4(c5ccc(OC)cc5N(C)[C@H]4[C@@](O)(C(=O)OC)[C@@H]1OC(=O)CCC(=O)N1CCN(c4ccc(C(F)(F)F)cc4)CC1)[C@@H]32 [Compound 28]", "%", 12.4),
    ("CC[C@]12C=CCN3CC[C@@]4(c5ccc(OC)cc5N(C)[C@H]4[C@@](O)(C(=O)OC)[C@@H]1OC(=O)CCC(=O)N1CCN(C)CC1)[C@@H]32 [Compound 27]", "%", 110),
    ("CCC12C=CCN3CCC4(c5cc(NC(=O)CCl)c(OC)cc5N(C)C4C(O)(C(=O)OC)C1OC(C)=O)C32 (centres unmarked) [Compound 12, 10-chloroacetamidovindoline]", "%", -47.9),
    ("CC[C@]12C=CCN3CC[C@@]4(c5ccc(OC)cc5N(C)[C@H]4[C@@](O)(C(=O)OC)[C@@H]1OC(=O)CCCN1CCN(Cc4ccc(C(F)(F)F)cc4)CC1)[C@@H]32 [Compound 23]", "%", -78.1),
    ("CCC12C=CCN3CCC4(c5ccc(OC)cc5N(C)C4C(O)(C(=O)OC)C1OC(=O)CCCBr)C32 (centres unmarked) [Compound 14, 17-(O-4-bromobutanoyl)vindoline]", "%", 87.2),
    ("CCC12C=CCN3CCC4(c5cc(NC(=O)CN6CCN(C(=O)c7ccco7)CC6)c(OC)cc5N(C)C4C(O)(C(=O)OC)C1OC(C)=O)C32 (centres unmarked) [Compound 21]", "%", 118),
    ("CCC12C=CCN3CCC4(c5cc(NC(=O)CN6CCN(C)CC6)c(OC)cc5N(C)C4C(O)(C(=O)OC)C1OC(C)=O)C32 (centres unmarked) [Compound 16]", "%", 97.4),
    ("CCC12C=CCN3CCC4(c5cc(NC(=O)CN6CCN(c7ccc(C(F)(F)F)cc7)CC6)c(OC)cc5N(C)C4C(O)(C(=O)OC)C1OC(C)=O)C32 (centres unmarked) [Compound 17]", "%", 7.24),
    ("CC[C@]12C=CCN3CC[C@@]4(c5ccc(OC)cc5N(C)[C@H]4[C@@](O)(C(=O)OC)[C@@H]1OC(=O)CCC(=O)N1CCN(Cc4ccc(C(F)(F)F)cc4)CC1)[C@@H]32 [Compound 29]", "%", 19.1),
    ("CC[C@]12C=CCN3CC[C@@]4(c5ccc(OC)cc5N(C)[C@H]4[C@@](O)(C(=O)OC)[C@@H]1OC(=O)CCC(=O)N1CCN(Cc4ccc(F)cc4)CC1)[C@@H]32 [Compound 30]", "%", 71.6),
    ("CC[C@]12C=CCN3CC[C@@]4(c5ccc(OC)cc5N(C)[C@H]4[C@@](O)(C(=O)OC)[C@@H]1OC(=O)CCC(=O)N1CCN(C(c4ccc(F)cc4)c4ccc(F)cc4)CC1)[C@@H]32 [Compound 31]", "%", -15.1),
    ("CC[C@]12C=CCN3CC[C@@]4(c5ccc(OC)cc5N(C)[C@H]4[C@@](O)(C(=O)OC)[C@@H]1OC(=O)CCCN1CCN(Cc4ccc(F)cc4)CC1)[C@@H]32 [Compound 24]", "%", 40.3),
    ("CC[C@]12C=CCN3CC[C@@]4(c5ccc(OC)cc5N(C)[C@H]4[C@@](O)(C(=O)OC)[C@@H]1OC(=O)CCCN1CCN(C(=O)c4ccco4)CC1)[C@@H]32 [Compound 26]", "%", 93.4),
    ("CCC12C=CCN3CCC4(c5cc(NC(=O)CN6CCN(C(c7ccc(F)cc7)c7ccc(F)cc7)CC6)c(OC)cc5N(C)C4C(O)(C(=O)OC)C1OC(C)=O)C32 (centres unmarked) [Compound 20]", "%", 31.7),
    ("CC[C@]12C=CCN3CC[C@@]4(c5ccc(OC)cc5N(C)[C@H]4[C@@](O)(C(=O)OC)[C@@H]1OC(=O)CCCN1CCN(c4ccc(C(F)(F)F)cc4)CC1)[C@@H]32 [Compound 22]", "%", -88.4),
    ("CCC12C=CCN3CCC4(c5ccc(OC)cc5N(C)C4C(O)(C(=O)OC)C1OC(=O)CCCN1CCN(C)CC1)C32 (centres unmarked) [Compound 3]", "%", 89.9),
]
